The measurements presented in this section are drawn from ChEMBL document CHEMBL3632480.

Tested on: MCF7
assay_explanation: Decrease in estrogen receptor alpha level in human MCF7 cells after 4 hrs by in-cell western assay
Assay type: functional, cell-based
assay_setup: MCF7, 4 h
attribute_measured: pEC50
Keep it numeric: pEC50 is minus log10 of the concentration in mol/L.

Example molecules with recorded pEC50:
Given the entry O=C(O)/C=C/c1ccc(/C(=C(\c2ccc(C(F)(F)F)cc2Cl)C2CCC2)c2ccc3[nH]nc(F)c3c2)cc1 , report its measured pEC50.
8.52

And for CC/C(=C(/c1ccc(/C=C/C(=O)O)cc1)c1ccc2[nH]ncc2c1C#N)c1ccccc1 ?
9.30

What do we get for O=C(O)/C=C/c1ccc(/C(=C(\c2ncccc2Cl)C2CCC2)c2ccc3[nH]nc(F)c3c2)cc1 ?
9.52

How about C[C@]12CC[C@@H]3c4ccc(O)cc4C[C@@H](CCCCCCCCC[S+]([O-])CCCC(F)(F)C(F)(F)F)[C@H]3[C@@H]1CC[C@@H]2O (some centres undefined) [FULVESTRANT] ?
9.40

Request: N#Cc1cc(C(F)(F)F)ccc1/C(=C(\c1ccc(/C=C/C(=O)O)cc1)c1ccc2[nH]nc(F)c2c1)C1CCC1
9.40

Further cases:
pEC50 lookup needed for O=C(O)/C=C/c1ccc(/C(=C(\c2ccccc2Cl)C2CCC2)c2ccc3[nH]nc(F)c3c2)cc1 , thanks.
9.40

Next up: CC(C)/C(=C(/c1ccc(/C=C/C(=O)O)cc1)c1ccc2[nH]ncc2c1)c1ccccc1
8.37

And N#Cc1cc(F)ccc1/C(=C(\c1ccc(/C=C/C(=O)O)cc1)c1ccc2[nH]nc(F)c2c1)C1CCC1 ?
9.52

Now give it for C/C(=C(/c1ccc(/C=C/C(=O)O)cc1)c1ccc2[nH]ncc2c1)c1ccccc1 too.
7.59

Can you check CC/C(=C(/c1ccc(/C=C/C(=O)O)cc1)c1cc2cn[nH]c2cc1F)c1ccccc1 next?
7.19

Let us now turn to N#Cc1cc(Cl)cnc1/C(=C(\c1ccc(/C=C/C(=O)O)cc1)c1ccc2[nH]nc(F)c2c1)C1CCC1
9.40

Now consider CC/C(=C(/c1ccc(/C=C/C(=O)O)cc1)c1ccc2[nH]ncc2c1Cl)c1ccccc1 .
9.10

Field entry: O=C(O)/C=C/c1ccc(/C(=C(/CCCl)c2ccccc2)c2ccc3[nH]ncc3c2)cc1
8.85

How about this molecule: COc1ccc(/C(=C(\c2ccc(/C=C/C(=O)O)cc2)c2ccc3[nH]nc(F)c3c2)C2CCC2)c(Cl)c1
9.10

###

System: MCF7
assay_explanation: Cytotoxicity against human MCF7 cells assessed as decrease in cell viability after 5 days by celltiterGlo assay
Assay type: functional, cell-based
assay_setup: MCF7, 120 h
attribute_measured: pIC50
Answer as the number alone; pIC50 is minus log10 of concentration in mol/L.

For orientation, consider the following solved cases.
Report pIC50 for COc1ccc(/C(=C(\c2ccc(/C=C/C(=O)O)cc2)c2ccc3[nH]nc(F)c3c2)C2CCC2)c(C#N)c1 please.
9.30

Thanks! And COC/C(=C(/c1ccc(/C=C/C(=O)O)cc1)c1ccc2[nH]ncc2c1)c1ccccc1 ?
7.06

Now the molecule O=C(O)/C=C/c1ccc(/C(=C(\c2ccccn2)C2CCC2)c2ccc3[nH]nc(F)c3c2)cc1
7.66

For CC/C(=C(/c1ccc(/C=C/C(=O)O)cc1)c1cc2cn[nH]c2cn1)c1ccccc1 then?
6.35

Same thing, different molecule: N#Cc1cc(Cl)ccc1/C(=C(\c1ccc(/C=C/C(=O)O)cc1)c1ccc2[nH]nc(F)c2c1)C1CCC1
9.15

Would you mind doing O=C(O)/C=C/c1ccc(/C(=C(\c2ncccc2Cl)C2CCC2)c2ccc3[nH]nc(F)c3c2)cc1 as well?
8.92

Can you handle C/C(=C(/c1ccc(/C=C/C(=O)O)cc1)c1ccc2[nH]ncc2c1)c1ccccc1 next?
7.40

Alright, here's another molecule for you.
Param item = O=C(O)/C=C/c1ccc(/C(=C(\c2ccc(C(F)(F)F)cc2Cl)C2CCC2)c2ccc3[nH]nc(F)c3c2)cc1 ; retrieve measured pIC50.
8.09
